Test: amyloid nucleation score (Sup35N fusion, yeast selection) (log enrichment); library NNK1; higher = more nucleation; inactive = no reads after selection;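 also: zero at mode of non-aggregating sequences after 7 days selection at 30°C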
Reported amyloid nucleation score is given for each of the following sequences.
Lab note: jot the number down without any unit.

Tell me its amyloid nucleation score given SCKFMIYNSVGAGSLGHVNR as the entry.
4.69

Let me know recorded amyloid nucleation score for SLWNSCSSE , thanks.
4.68

Look up and state reported amyloid nucleation score for TWNRRVRVYTGYCPNVGMSL
4.94

---

Assay: amyloid nucleation score (Sup35N fusion, yeast selection) (log enrichment); library NNK2; higher = more nucleation; inactive = no reads after selection
Label rule, in plain words: amyloid nucleation score of 0.4 and up is Fulfilled, under 0.4 is Not fulfilled.

Please review the following examples before continuing.
INSERT INTO results (substance, category) VALUES
  ('LLCCIIIIGMVLGLMTDPEW', 'Not fulfilled'),
  ('HSSSDVCT', 'Fulfilled'),
  ('WCGREVNLHALLCKIDRLTI', 'Fulfilled'),
  ('TLYDGWLVGPVERRFVIRAL', 'Fulfilled'),
  ('SPCLDGDRHVGSQMLSPLSW', 'Fulfilled');

Decide: amyloid nucleation score of LDTHRPPYQDRVWLTRSANT >= 0.4?
Fulfilled

Is amyloid nucleation score at least 0.4? Consider HMEAFWCWFYGNVAFNRFCV
Not fulfilled
